Quick reference: pIC50 of the listed items.
Target: adenosine A2A receptor (Homo sapiens (Human))
Sequence (P29274 whole entry): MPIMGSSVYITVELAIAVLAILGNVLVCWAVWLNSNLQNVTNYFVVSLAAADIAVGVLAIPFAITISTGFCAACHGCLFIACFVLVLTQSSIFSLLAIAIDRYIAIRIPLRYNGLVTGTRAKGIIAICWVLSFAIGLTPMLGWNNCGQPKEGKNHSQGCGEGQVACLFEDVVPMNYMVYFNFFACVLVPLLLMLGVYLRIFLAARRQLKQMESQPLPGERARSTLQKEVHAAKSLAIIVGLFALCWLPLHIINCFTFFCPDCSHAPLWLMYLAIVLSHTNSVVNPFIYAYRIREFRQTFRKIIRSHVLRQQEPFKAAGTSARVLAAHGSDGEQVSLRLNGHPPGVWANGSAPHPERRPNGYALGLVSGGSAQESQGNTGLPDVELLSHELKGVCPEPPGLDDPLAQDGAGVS
Test: Adenosine receptor activity assay (Table 1), A2A activity
Assay type: biochemical
Details: read-out: Ave A2A cAMP IC50
pIC50: −log10 of the molar value.

Example entries and their recorded answers appear below.
CC(C)OC(=O)NC1CN(C(=O)c2nc(N[C@@H](C)c3cncc(F)c3)nc3ccsc23)C1 7.30 to 8.00
Cc1cc2nc(N[C@@H](C)c3cncc(F)c3)nc(C(=O)N3CC(N(C)C)C3)c2s1 < 6.30
CC(=O)N(C)C1CN(C(=O)c2nc(N[C@@H](C)c3cncc(F)c3)nc3cc(C)sc23)C1 < 6.30
Cc1cc2nc(N[C@@H](C)c3cncc(F)c3)nc(C(=O)NCC3CCNCC3)c2s1 < 6.30

Inquiry: Name the recorded pIC50 for C[C@H](Nc1nc(C(=O)NC[C@H]2CCCN2)c2sccc2n1)c1ccccn1 .
Reply text: < 6.30

Inquiry: Name the recorded pIC50 for C[C@H](Nc1nc(C(=O)NC[C@H]2CCCN2C(=O)OC(C)(C)C)c2sccc2n1)c1ccccn1 .
Reply text: < 6.30

Inquiry: Name the recorded pIC50 for Cc1cc2nc(N[C@@H](C)c3cncc(F)c3)nc(C(=O)NCCC3CCNCC3)c2s1 .
Reply text: < 6.30

Inquiry: Name the recorded pIC50 for C[C@H](Nc1nc(C(=O)N[C@H]2CC[C@@H](O)C2)c2sccc2n1)c1cncc(F)c1 .
Reply text: 7.30 to 8.00

----------
Target: UniProtKB P29275
Assay: Adenosine receptor activity assay (Table 1), A2B activity
Type: biochemical
Settings: read-out: Ave A2B cAMP IC50
Value Type: IC50

Molecule	IC50
CC(=O)NC1CN(C(=O)c2nc(N[C@@H](C)c3cncc(F)c3)nc3ccsc23)C1 [Example Z530]	0.01 to 0.05 µM

Inquiry: Name the recorded IC50 for C[C@H](Nc1nc(C(=O)N[C@H]2C[C@H](O)C2)c2sccc2n1)c1ccccn1 [Example Z159] .
Reply text: 0.01 to 0.05 µM

Inquiry: Name the recorded IC50 for C[C@H](Nc1nc(C(=O)N2CCC[C@H]2C)c2sccc2n1)c1cncc(F)c1 [Example Z272] .
Reply text: 0.01 to 0.05 µM

Inquiry: Name the recorded IC50 for Cc1ncccc1CNc1nc(C(=O)N2CCCC2)c2sccc2n1 [Example Z91] .
Reply text: 0.01 to 0.05 µM

Inquiry: Name the recorded IC50 for COC1CN(C(=O)c2nc(NCc3cncc(F)c3)nc3ccsc23)C1 [Example Z115] .
Reply text: < 0.01 µM

Inquiry: Name the recorded IC50 for COc1cc(F)cc(CNc2nc(C(=O)N3CC(C)(O)C3)c3sccc3n2)c1 [Example Z136] .
Reply text: 0.05 to 0.1 µM

Inquiry: Name the recorded IC50 for COc1cccc(CNC(=O)c2nc(N[C@@H](C)c3cccnc3)nc3ccsc23)n1 [Example Z73] .
Reply text: 0.01 to 0.05 µM

----------
Target: adenosine A2B receptor (Homo sapiens (Human), UniProt P29275)
Sequence (P29275 whole entry): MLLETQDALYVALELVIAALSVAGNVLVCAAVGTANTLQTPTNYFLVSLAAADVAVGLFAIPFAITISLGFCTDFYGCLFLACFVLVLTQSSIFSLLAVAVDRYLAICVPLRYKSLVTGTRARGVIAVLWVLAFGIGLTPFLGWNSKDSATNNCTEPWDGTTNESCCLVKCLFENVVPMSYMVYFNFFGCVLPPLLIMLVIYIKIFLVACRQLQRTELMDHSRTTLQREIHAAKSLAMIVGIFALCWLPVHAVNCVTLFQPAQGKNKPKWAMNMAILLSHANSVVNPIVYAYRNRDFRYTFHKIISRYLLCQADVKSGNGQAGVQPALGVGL
Test: Adenosine receptor activity assay (Table 1), A2B activity
Type: biochemical
Conditions: read-out: Ave A2B cAMP IC50
Quick reference: IC50 of the listed items.

Inquiry: I'm curious: which IC50 was measured for C[C@H](Nc1nc(C(=O)N2CC(C(=O)NCCO)C2)c2sccc2n1)c1cncc(F)c1 tested on adenosine A2B receptor (Homo sapiens (Human), UniProt P29275)?
Reply text: 50 to 100 nM

Inquiry: I'm curious: which IC50 was measured for C[C@H](NC(=O)c1nc(N[C@@H](C)c2cccnc2)nc2ccsc12)c1cccnc1 tested on adenosine A2B receptor (Homo sapiens (Human), UniProt P29275)?
Reply text: 100 to 500 nM

Inquiry: I'm curious: which IC50 was measured for O=C(NCc1ccccn1)c1nc(NCc2ccccn2)nc2ccsc12 tested on adenosine A2B receptor (Homo sapiens (Human), UniProt P29275)?
Reply text: 50 to 100 nM

Inquiry: I'm curious: which IC50 was measured for Cc1cc2nc(N[C@@H](C)c3cncc(F)c3)nc(C(=O)N3CC(N(C)C(=O)CC(C)(C)C)C3)c2s1 tested on adenosine A2B receptor (Homo sapiens (Human), UniProt P29275)?
Reply text: 10 to 50 nM

Inquiry: I'm curious: which IC50 was measured for C[C@H](Nc1nc(C(=O)NCCc2ccncc2)c2sccc2n1)c1cncc(F)c1 tested on adenosine A2B receptor (Homo sapiens (Human), UniProt P29275)?
Reply text: 10 to 50 nM

Inquiry: I'm curious: which IC50 was measured for C[C@H](Nc1nc(C(=O)N2CC[C@H](O)C2)c2sccc2n1)c1ccnc(F)c1 tested on adenosine A2B receptor (Homo sapiens (Human), UniProt P29275)?
Reply text: 100 to 500 nM

Inquiry: I'm curious: which IC50 was measured for CC1(O)CN(C(=O)c2nc(NCc3cncc(F)c3)nc3ccsc23)C1 tested on adenosine A2B receptor (Homo sapiens (Human), UniProt P29275)?
Reply text: 10 to 50 nM

Inquiry: I'm curious: which IC50 was measured for O=C(c1nc(NCc2ccccc2)nc2ccsc12)N1CCCC1 tested on adenosine A2B receptor (Homo sapiens (Human), UniProt P29275)?
Reply text: 100 to 500 nM

Inquiry: I'm curious: which IC50 was measured for C[C@H](Nc1nc(C(=O)NC2CNC2)c2sccc2n1)c1cncc(F)c1 tested on adenosine A2B receptor (Homo sapiens (Human), UniProt P29275)?
Reply text: > 500 nM

Inquiry: I'm curious: which IC50 was measured for CNc1cc2nc(N[C@@H](C)c3cccnc3)nc(C(=O)N3CCCC3)c2s1 tested on adenosine A2B receptor (Homo sapiens (Human), UniProt P29275)?
Reply text: < 10 nM

Inquiry: I'm curious: which IC50 was measured for CCOc1ccc(CNc2nc(C(=O)NCCc3cccc(O)c3)c3sccc3n2)cn1 tested on adenosine A2B receptor (Homo sapiens (Human), UniProt P29275)?
Reply text: > 500 nM

Inquiry: I'm curious: which IC50 was measured for Cc1cc2nc(N[C@@H](C)c3cncc(F)c3)nc(C(=O)N3CC[C@@H](N)C3)c2s1 tested on adenosine A2B receptor (Homo sapiens (Human), UniProt P29275)?
Reply text: 10 to 50 nM

Inquiry: I'm curious: which IC50 was measured for C[C@H](Nc1nc(C(=O)N2CCC(C)(C)C2)c2sccc2n1)c1cccnc1 tested on adenosine A2B receptor (Homo sapiens (Human), UniProt P29275)?
Reply text: 100 to 500 nM

The measured values listed here are drawn from patent US11254686B1.
